System: Plasmodium falciparum NF54
assay-name: growth inhibition relative to untreated control; higher = more inhibition
condition-info: 1 µM; minimal medium (MM); 72 h
Classify as follows. Reported growth inhibition greater than or equal to 50%: Satisfied. Reported growth inhibition below: Not satisfied.

- molecule: "CC(C(=O)Nc1ccc2oc(-c3ccncc3)nc2c1)c1ccccc1 (stereo not drawn)"
  label-class: "Not satisfied"

Task: Determine whether this molecule has growth inhibition no lower than 50%: `N#Cc1nc(-c2ccccc2F)oc1NCCc1ccccc1`
Output: Not satisfied

Task: Reported growth inhibition at or above 50%? COc1cc(OC)cc(C(=O)NCC2Cc3cc(Cl)cc(-c4ccncc4)c3O2)c1 (stereo not drawn)
Output: Satisfied

====

System: Plasmodium falciparum NF54
assay-name: growth inhibition relative to untreated control; higher = more inhibition
condition-info: 5 µM; minimal medium (MM); 72 h
observation-type: growth inhibition

- molecule: "CC1=NN(c2nc3ccccc3s2)C(=O)C1Cc1cccc2ccccc12 (stereo not drawn)"
  measurement-target: "Plasmodium falciparum NF54"
  growth inhibition: "< 0%"
- molecule: "CS(=O)(=O)c1ccccc1C(=O)N(Cc1ccccc1)c1ccccc1"
  measurement-target: "Plasmodium falciparum NF54"
  growth inhibition: "< 0%"

Okay, now this molecule:
The value of growth inhibition measured for the molecule `COc1cccc(OCC(=O)c2ccc(Br)cc2)c1` turned out to be < 0%

====

System: Plasmodium falciparum NF54
assay-name: growth inhibition relative to untreated control; higher = more inhibition
condition-info: 1 µM; minimal medium (MM); 72 h
Each entry below lists one item and its recorded growth inhibition value.

Recorded growth inhibition for `Cc1noc(C)c1COc1cccc(C(=O)N=c2[nH]cccc2C)c1` on Plasmodium falciparum NF54 was < 0%

Entry O=C(Nc1nc(-c2ccccn2)cs1)C1CC1c1ccccc1F (centres undefined) , tested on Plasmodium falciparum NF54, has a reported growth inhibition of < 0%

// compound `CC(=O)N(CCN(C(=O)c1ccc(F)cc1)c1ccccc1)c1ccccc1` , assay Plasmodium falciparum NF54, growth inhibition value: < 0%

Value (growth inhibition, Plasmodium falciparum NF54) for record `CCCCc1ccc(NC(=O)Nc2ccc(O[C@H]3CCCC[C@@H]3N(C)c3ccccc3)c(F)c2)cc1` = < 0%

====

Test system: Plasmodium falciparum NF54
assay-name: growth inhibition relative to untreated control; higher = more inhibition
condition-info: 1 µM; MM + chorismate end-products (CM screening medium); 72 h
observation-type: growth inhibition (%)
Please respond with the number in % and leave the unit unwritten.

The molecule O=C(c1ccc(NCCO)cc1)C1C[C@H]1c1ccc(Cl)cc1 (some centres not stated) , when measured on Plasmodium falciparum NF54, yielded growth inhibition of 71

GET /values?item= `OCCc1ccc(Nc2nccc(-c3nnc4ccccn34)n2)cc1` &system= Plasmodium falciparum NF54 returns growth inhibition: 82.3

Test item `COc1ccc2nc(C)cc(OCC(=O)Nc3ccccc3OC)c2c1` ; Plasmodium falciparum NF54; reported growth inhibition was 11.7

`COc1ccc(N(CCc2cccc(C)n2)C(C)=O)cc1` tested on Plasmodium falciparum NF54 gave growth inhibition: 16.2

Summary line: `CCc1c(C)nc(-n2nc(C)cc2NC(=O)c2ccccc2SC)[nH]c1=O` , Plasmodium falciparum NF54, reported growth inhibition = 72.1

Reported Plasmodium falciparum NF54 growth inhibition for item `CCCCCCCCCCCCCCCCOP(=O)([O-])OCC[N+](C)(C)C` was 35.9

With Plasmodium falciparum NF54 as the test system, `O=C(C1CCN(c2nnnn2-c2ccccc2)CC1)N1CCc2ccccc2C1` showed growth inhibition of 43.4

====

Test system: Plasmodium falciparum NF54
assay-name: growth inhibition relative to untreated control; higher = more inhibition
condition-info: 5 µM; MM + chorismate end-products (CM screening medium); 72 h
Response field class: enum, chosen by comparing growth inhibition against low-valued = under 40%, mid-valued = from 40% up to 90%, high-valued = 90% and over

- compound: "Nc1nccc2ccc(-c3ccc4nccn4c3)cc12"
  label-class: "high-valued"
- compound: "C[C@H](C(N)=O)N1CCCC[C@H]1c1ccc(OCc2cccc(F)c2)cc1"
  label-class: "low-valued"
- compound: "Cc1ccc2c(c1C)NC(=O)C21NN=C(c2ccccc2)S1 (stereo unspecified)"
  label-class: "high-valued"
- compound: "C[C@H]1COc2c(N3CCN(C)CC3)c(F)cc3c(=O)c(C(=O)O)cn1c23"
  label-class: "low-valued"
- compound: "COc1nc2ccc(Br)cc2cc1[C@@H](c1ccccc1)[C@@](O)(CCN(C)C)c1cccc2ccccc12"
  label-class: "high-valued"

Task: For `O=C1COCc2ccc(Br)cc2N1Cc1ccc(C(F)(F)F)cc1` , which growth inhibition bin applies?
Output: high-valued

Task: Please let me know in which category the item CC(C(=O)N1CCCC1)N1CCN(S(=O)(=O)c2ccc(C(C)(C)C)cc2)CC1 (stereo unspecified) belongs.
Output: mid-valued

Task: Hi, small favor: classify `Clc1ccc(CN2CCN(C3=NCCN3)CC2)cc1Cl` by its growth inhibition when you get a moment.
Output: mid-valued

Task: Looking at `O=C(NCc1nnc2n1CCCCC2)c1ccc(-c2ccc(F)cc2)o1` , which class would you pick?
Output: low-valued

Task: Which class is correct for the following compound? `Nc1ncnc2[nH]nc(Cc3cccc4ccccc34)c12`
Output: low-valued

Task: Sort into band: `c1ccc(Oc2ccc(-c3cc(C4CCOCC4)[nH]n3)cc2)cc1`
Output: low-valued

Task: Band for the recorded growth inhibition of `Cc1cc(OCC(=O)Nc2ccc(C(C)C)cc2)n(C)c(=O)c1C#N` ?
Output: low-valued

Task: State the class of the compound shown: `COc1cc2ncnc(NC3CCN(Cc4ccccc4)CC3)c2cc1OC`
Output: high-valued

Task: # bin lookup: classify `COc1ccc2nccc(NC(=O)C3CCN(CCc4ccc(Cl)cc4)CC3)c2n1` by its growth inhibition
Output: mid-valued

Task: Category of `Cc1ccc2[nH]c3c(NCCN(C)C)ncnc3c2c1` :
Output: high-valued

Task: Which class holds `Cc1nnc(NCc2cccc(Cl)c2)c2ccccc12` ?
Output: low-valued

Task: Note: place this compound into its band. Item: `c1csc(-c2cnc3sc(NCC4CCOCC4)nn23)c1`
Output: high-valued

Task: Which class is correct for the following compound? `CCCCc1ccc(NC(=O)Nc2ccc(O[C@H]3CCCC[C@@H]3N(C)c3ccccc3)c(F)c2)cc1`
Output: high-valued

====

Tested on: Plasmodium falciparum NF54
assay-name: growth inhibition relative to untreated control; higher = more inhibition
condition-info: 5 µM; minimal medium (MM); 72 h
observation-type: growth inhibition

Solved entries:
- smiles-code: "Cc1cc2nc(NC(=O)C(C)(C)C)nc(Cl)c2n1Cc1ccc(Cl)cc1"
  growth inhibition: "< 0%"
- smiles-code: "O=C(Nc1ccccc1-c1nc2c(C(=O)O)cccc2o1)c1ccccc1"
  growth inhibition: "< 0%"

// recorded growth inhibition for `O=C(Nc1c(O)cccc1-c1nc2c(C(=O)O)cccc2o1)c1cc(-c2ccccc2)on1` : < 0%

====

System: Plasmodium falciparum NF54
assay-name: growth inhibition relative to untreated control; higher = more inhibition
condition-info: 1 µM; MM + chorismate end-products (CM screening medium); 72 h
Class key for growth inhibition values: class A = under 5%, class B = from 5% up to 40%, class C = 40% and over

- smiles-code: "O=C(Nc1ccc(N2CCNCC2)cc1)c1ccn2ncc(-c3cccc(Cl)c3)c2n1"
  label-class: "class C"
- smiles-code: "CCCn1nnc(NC(=O)COc2ccc(C3CCCCC3)cc2)n1"
  label-class: "class B"
- smiles-code: "CCCCS(=O)(=O)Nc1ccc2cnn(C)c2c1"
  label-class: "class A"
- smiles-code: "CNc1snc(C)c1C(=O)NCCOc1ccc(OC)cc1"
  label-class: "class C"
- smiles-code: "O=C(CN1CCOCC1)Nc1ccc2ncnc(Nc3ccc(OCc4cccc(F)c4)c(Cl)c3)c2c1"
  label-class: "class A"

Task: Kindly identify the class of `COc1cccc(CC(=O)N2CCC(n3c(C)nc4ccc(F)cc43)CC2)c1` .
Output: class C

Task: Form: Item = `N=C(N)c1ccc(-c2cc(-c3ccccc3)on2)cc1` ; Class = ?
Output: class A

Task: Any idea which band `N#Cc1nc(-c2ccccc2F)oc1NCCc1ccccc1` is in?
Output: class A

Task: # bin lookup: classify `Cc1nc(-c2cccc(NCc3ccccc3)c2)[nH]c1C` by its growth inhibition
Output: class C

Task: Please report the category associated with `COc1ccc(OC)c(NCc2ccc3nc(N)nc(N)c3c2Cl)c1` , nothing else.
Output: class C

Task: Which bin should I file `CCCCc1ccc(NC(=O)Nc2ccc(O[C@H]3CCCC[C@@H]3N(C)c3ccccc3)c(F)c2)cc1` under?
Output: class B

Task: Hey, which category is `Nc1nccc2ccc(-c3ccc4nccn4c3)cc12` in, do you know?
Output: class C

Task: # bin lookup: classify `O=C(Nc1ccccc1)c1ccc(-c2cc3ccncc3cc2OC2CCNCC2)s1` by its growth inhibition
Output: class C

====

System: Plasmodium falciparum NF54
assay-name: growth inhibition relative to untreated control; higher = more inhibition
condition-info: 5 µM; MM + chorismate end-products (CM screening medium); 72 h
Mark Criterion met for reported growth inhibition of 80% or greater; mark Criterion not met for anything smaller.

- compound: "COc1ccc2nc(C)cc(OCC(=O)Nc3ccccc3OC)c2c1"
  measurement-target: "Plasmodium falciparum NF54"
  label-class: "Criterion not met"
- compound: "Nc1ncnc2c1ncn2C[C@@H](O)[C@@H](O)C(=O)O"
  measurement-target: "Plasmodium falciparum NF54"
  label-class: "Criterion not met"
- compound: "NCCC(O)C(=O)N[C@@H]1C[C@H](N)[C@@H](OC2O[C@H](CN)[C@@H](O)[C@H](O)[C@H]2O)[C@H](O)C1OC1O[C@H](CO)[C@@H](O)[C@H](N)[C@H]1O (stereo not given in full)"
  measurement-target: "Plasmodium falciparum NF54"
  label-class: "Criterion not met"
- compound: "CC(C)(C)n1nc(Cc2cccc3ccccc23)c2c(N)ncnc21"
  measurement-target: "Plasmodium falciparum NF54"
  label-class: "Criterion not met"

Task: Threshold query (growth inhibition >= 80%) on `Cc1nc(-c2cccc(NCc3ccccc3)c2)[nH]c1C`
Output: Criterion met

Task: Can COc1ccc(OC(C)C(=O)Nc2ccc(Cl)cc2C)cc1 (stereo not given) be said to have growth inhibition at or above 80%?
Output: Criterion not met

Task: Does the compound CS(=O)(=O)c1ccc(C(=O)N(CC2CCCO2)c2nc3ccccc3s2)cc1[N+](=O)[O-] (stereo not given) have recorded growth inhibition that is 80% or more?
Output: Criterion not met

Task: State whether the measured growth inhibition reaches 80%, counting equality as reaching it, for Cc1cc2ccccc2n1CC(=O)N1CC(C(=O)N2CCCCC2)Oc2ccccc21 (stereo not given)
Output: Criterion met

Task: Could you tell me if the measured growth inhibition of `CCCn1nnc(NC(=O)COc2ccc(C3CCCCC3)cc2)n1` reaches 80% or more?
Output: Criterion not met

Task: Quick check: does `COc1cc(C(F)(F)F)nc2ccc(C)c(N)c12` have growth inhibition greater than or equal to 80%?
Output: Criterion not met

Task: // inclusive: growth inhibition at least 80%? input: CC1CCCN(C(=O)C(C)Nc2cc(Cl)ccc2N2CCOCC2)C1 (stereo not given)
Output: Criterion met

Task: Hello, I need to know if `CC(C)(C)OC(=O)N1CCN(c2nccc(-c3ccc(-c4ccc(Cl)cc4)s3)n2)CC1` has measured growth inhibition not below 80%. Thanks!
Output: Criterion not met

Task: Given `CN1CCC(c2cc(-c3ccncc3)c(-c3ccc(F)cc3)[nH]2)CC1` , state whether its growth inhibition is at least 80%.
Output: Criterion met

Task: Does `CCc1ccc(S(=O)(=O)Nc2cc(CN3CCN(CCC(C)C)CC3)ccc2C)cc1` have a reported growth inhibition of at least 80%?
Output: Criterion not met
